- test-protocol: Mouse blood and tissue PK (LC/MS-MS)
- Type: in vivo
- experimental-context: Balb/c nude, mouse, whole blood, po, 25 mg/kg, LU99-luc IC (25 mg/kg), single dose
readout: Cmax (ng/mL)
Answer format: numeric, ng/mL implied, no suffix.

stdin: Reported Cmax for CCn1c(-c2cc(N3CCN(C)CC3)cnc2[C@H](C)OC)c2c3cc(ccc31)-c1csc(n1)C[C@H](NC(=O)[C@H]1C[C@@H]1C)C(=O)N1CCC[C@H](N1)C(=O)OCC(C)(C)C2 : what is it?
stdout: 2500

* * *

- test-protocol: Mouse blood and tissue PK (LC/MS-MS)
- Type: in vivo
- experimental-context: mouse, tumor, po, 25 mg/kg, KP-4 (25 mg/kg), single dose; read-out: Tumor t1/2 (converted)
readout: half-life (min)
Answer format: numeric, min implied, no suffix.

stdin: Reported half-life for CCn1c(-c2cc(N3CCN(C)CC3)cnc2[C@H](C)OC)c2c3cc(ccc31)-c1csc(n1)C[C@H](NC(=O)[C@H]1C[C@@H]1C)C(=O)N1CCC[C@H](N1)C(=O)OCC(C)(C)C2 [RMC-6236] : what is it?
stdout: 678

* * *

- test-protocol: Mouse blood and tissue PK (LC/MS-MS)
- Format: in vivo
- experimental-context: BALB/c nude, mouse, tumor, oral, 10 mg/kg, Capan-2, study Capan-2 #3_PHA 2020, 10 mg/kg, 24h; read-out: RMC-6236 (nM) Tumor
readout: concentration at 24 h

stdin: Reported concentration at 24 h for CCn1c(-c2cc(N3CCN(C)CC3)cnc2[C@H](C)OC)c2c3cc(ccc31)-c1csc(n1)C[C@H](NC(=O)[C@H]1C[C@@H]1C)C(=O)N1CCC[C@H](N1)C(=O)OCC(C)(C)C2 : what is it?
stdout: 406 nM

* * *

- test-protocol: Mouse blood and tissue PK (LC/MS-MS)
- Assay type: in vivo
- experimental-context: mouse, tumor, oral, 50 mg/kg, KP-4, study KP-4 #3, 50 mg/kg, 48h; read-out: RMC-6236 (nM) Tumor
readout: concentration at 48 h (nM)
Answer format: numeric, nM implied, no suffix.

stdin: Reported concentration at 48 h for CCn1c(-c2cc(N3CCN(C)CC3)cnc2[C@H](C)OC)c2c3cc(ccc31)-c1csc(n1)C[C@H](NC(=O)[C@H]1C[C@@H]1C)C(=O)N1CCC[C@H](N1)C(=O)OCC(C)(C)C2 : what is it?
stdout: 489

* * *

- test-protocol: Mouse blood and tissue PK (LC/MS-MS)
- Type: in vivo
- experimental-context: mouse, tumor, oral, 25 mg/kg, NCI-H441 xenograft tumor, study NCI-H441#8, 25 mg/kg, 24h; read-out: RMC-6236 (nM) Tumor
readout: concentration at 24 h (nM)
Answer format: numeric, nM implied, no suffix.

stdin: Reported concentration at 24 h for CCn1c(-c2cc(N3CCN(C)CC3)cnc2[C@H](C)OC)c2c3cc(ccc31)-c1csc(n1)C[C@H](NC(=O)[C@H]1C[C@@H]1C)C(=O)N1CCC[C@H](N1)C(=O)OCC(C)(C)C2 : what is it?
stdout: 1080

* * *

- test-protocol: Mouse blood and tissue PK (LC/MS-MS)
- Format: in vivo
- experimental-context: mouse, tumor, oral, 25 mg/kg, Model Development Dataset; 25mg/kg_study8; 24 h; read-out: Tumor Concentration
- Procedure: For single-dose PKPD study, mice were randomized and assigned into groups (n = 3/dose/time point). […] Blood and tissues, including the tumor, brain, colon, ear skin, and muscle, were harvested at indicated time points. […] The whole blood, tumor, brain, colon, and ear skin concentrations of RMC-6236 were determined using liquid chromatography–tandem mass spectrometry (LC/MS-MS) methods. […] Concentrations reported as below the quantification limit were treated as zero for PK analysis. […]
readout: concentration at 24 h (nM)
Answer format: numeric, nM implied, no suffix.

stdin: Reported concentration at 24 h for CCn1c(-c2cc(N3CCN(C)CC3)cnc2[C@H](C)OC)c2c3cc(ccc31)-c1csc(n1)C[C@H](NC(=O)[C@H]1C[C@@H]1C)C(=O)N1CCC[C@H](N1)C(=O)OCC(C)(C)C2 : what is it?
stdout: 995

Reference for the values: paper PMC11149917
